target: human type I sPLA2 (Homo sapiens, UniProt P04054); assay: Inhibition test of human secretory phospholipase A2, chromogenic assay, Type I enzyme; conditions: human type I enzyme 90 ng/well, absorbance change 30 min, OD 405 nm
Sequence (P04054 23-148): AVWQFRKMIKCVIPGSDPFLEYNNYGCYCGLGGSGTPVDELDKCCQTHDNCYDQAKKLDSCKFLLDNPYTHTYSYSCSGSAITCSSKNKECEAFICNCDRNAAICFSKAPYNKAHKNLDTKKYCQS
readout-kind: IC50
Could you write the number and then its unit?

Entry under review: Cc1cc(OC(C)C(=O)O)c2c3c(c(Cc4ccccc4)n2n1)CCC=C3C(N)=O (stereo not drawn) [Compound I-2] . Reported IC50? 79 nM

Lookup COc1cccc(Cc2c3c(c4c(OCC(=O)O)cc(-c5ccccc5)nn24)C(C(N)=O)=CCC3)c1 [Compound I-10] 49 nM

Can you check Cc1cn2c(Cc3ccccc3)c3c(c2c(OC(C)C(=O)O)n1)C(C(N)=O)=CCC3 (stereo not drawn) [Compound I-13] next? 93 nM

# iterate: COc1cccc(Cc2c3c(c4c(OC(C)C(=O)O)cc(C)nn24)C(C(N)=O)=CCC3)c1 (stereo not drawn) [Compound I-8] 76 nM

Another compound to look at: NC(=O)C1=CCCc2c1c1c(OCC(=O)O)nccn1c2Cc1ccccc1 [Compound I-12] 86 nM

Moving on to the next compound: Cc1cn2c(CC3CCCCC3)c3c(c2c(OC(C)C(=O)O)n1)C(C(N)=O)=CCC3 (stereo not drawn) [Compound I-14] 57 nM
